Entries and their measured FACS-Seq fitted mean (log10) follow.
B1: library; a variant is named by its letters at N, in order (parent)
chain: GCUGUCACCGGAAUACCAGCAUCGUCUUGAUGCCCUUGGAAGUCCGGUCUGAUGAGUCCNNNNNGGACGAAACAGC

variants of: B1; experiment: FACS-Seq fitted mean relative fluorescence mCherry/BFP with ligand (log10 relative fluorescence); ligand concentration (+) FACS-Seq: 1 mM; higher = higher reporter protein expression; conditions: HEK293T, ligand present: yes
readout-type: FACS-Seq fitted mean (log10)

* UAAUU | 0.613
* AGUAG | 0.884
* UUAGC | 0.916
* AUUCC | 0.909
* AGAGA | 0.603
* CACGA | 0.917
